Exercise: for every item that follows, state its recorded z-score.
Test: changes in parasitized red cell lysis, either direction – P. falciparum Indochina, OD700, 3 h, PSAC antagonist project, primary screen (AID 1156)
Settings: P. falciparum-infected erythrocytes, osmotic lysis, higher = more signal, called active from +8 up or from −8 down
Calls of active or inactive are those of the source.

Challenge: Recorded z-score for C=CCOC(=O)[C@H]1[C@@H]2C(=O)O[C@@H](c3ccccc3)[C@@H](c3ccccc3)N2[C@@H](c2ccc(OCCOC(=O)[C@H]3C[C@H]4C(=O)N[C@@H](CCCCN(C)C)C(=O)N4[C@H]3c3ccc(O)cc3)cc2)[C@]12C(=O)Nc1ccccc12 , please?
Response given: 3.2 (inactive)

Challenge: Recorded z-score for C=CCC(OC(C)=O)[C@@H]1[C@@H](N(Cc2ccc(-c3cccc(C(F)(F)F)c3)o2)C(=O)c2cccc3ccccc23)c2cc(OCCCO)ccc2N1C(=O)c1ccc(-c2ccccc2)cc1 (stereo partly specified) , please?
Response given: 2.33 (inactive)

Challenge: Recorded z-score for CC1C=C(CCCO)C=C(C(=O)OCCS(C)(=O)=O)C(C(=O)OCCS(C)(=O)=O)=CN1Cc1cccc(OC(F)(F)F)c1 (stereo unspecified) , please?
Response given: 0.714 (inactive)

Challenge: Recorded z-score for CN(C)CCCNC(=O)[C@@]1(Cc2ccccc2I)c2ccccc2C(=O)N(Cc2ccccc2Cl)[C@H]1c1ccc(CO)cc1 , please?
Response given: -0.613 (inactive)

Challenge: Recorded z-score for CC(C)(C)OC(=O)CC[C@@]1(C(=O)N2CCCCC2)N=C(c2ccc(OCCCO)cc2)O[C@@H]1c1ccccc1CN=[N+]=[N-] , please?
Response given: 1.03 (inactive)

Challenge: Recorded z-score for CCCC=C(CCC)[C@@H](NS(=O)(=O)CC)c1ccccc1 , please?
Response given: -1.28 (inactive)

* * *

Experiment: ATP-based viability of Huh7 replicon cells – cell-based, CellTiter-Glo luminescence, basal, 48 h, cytotoxicity control for HCV replication inhibitor project, primary screen (AID 1143);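 further: Huh7 hepatoma cells carrying a hepatitis C replication reporter with no stimulus; test concentration not given here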
Conditions: higher = more signal, called active from +8 up or from −8 down
metric: z-score
// keep it numeric: no unit symbol after the value

Challenge: Recorded z-score for C[N+](C)(C)CCCCNC(=O)[C@H]1C[C@H]2C(=O)NCC(=O)N2[C@H]1c1ccc(O)cc1 , please?
Response given: 0.215

Challenge: Recorded z-score for O=C1O[C@@H](c2ccccc2)[C@@H](c2ccccc2)N2[C@@H](c3ccc(O)cc3)[C@]3(C(=O)Nc4ccc(C#CC5=CCCCC5)cc43)[C@@H](C(=O)Nc3nc4ccccc4s3)[C@H]12 , please?
Response given: -1.77

Challenge: Recorded z-score for CCCN1C(=O)[C@@H]2Cc3c([nH]c4ccccc34)[C@@H](c3cccc(O)c3)N2C1=O , please?
Response given: 0.792

Challenge: Recorded z-score for OCCCC1=CC(c2cccs2)N(Cc2cccc(OC(F)(F)F)c2)CC1 (centres undefined) , please?
Response given: -1.06

* * *

Assay: changes in parasitized red cell lysis, either direction – P. falciparum Indochina, OD700, 3 h, PSAC antagonist project, primary screen (AID 1156)
Conditions: P. falciparum-infected erythrocytes, osmotic lysis, higher = more signal, called active from +8 up or from −8 down
metric: z-score
// keep it numeric: no unit symbol after the value

Challenge: Recorded z-score for CCOC(=O)C[C@H]1[C@H](OC(=O)c2ccccc2-c2ccccc2)[C@@H](NC(=O)c2ccccc2)c2cc(OCCCO)ccc2N1C(=O)Cc1ccc(OC)cc1 , please?
Response given: -0.338

Challenge: Recorded z-score for Cc1ccc(F)cc1S(=O)(=O)N[C@@H]1CCN(C(=O)c2ccc(OC(C)C)cc2)C1 , please?
Response given: 0.79

Challenge: Recorded z-score for Cc1ccccc1C(O)C1C=CC2C(=O)N(Cc3ccccc3)C(=O)C2N1n1cnnc1 (stereo not drawn) , please?
Response given: 0.341

Challenge: Recorded z-score for COc1ccc([Si](C)(C)[C@@H]2[C@@H](CCO)O[C@]3(C(=O)N(Cc4ccc(N5C(=O)c6ccccc6Oc6ccccc65)cc4)c4ccccc43)[C@H]2C)cc1 , please?
Response given: -1.14

Challenge: Recorded z-score for C=CC[C@]1(C(=O)N2CCOCC2)N=C(c2ccc(OCCCO)cc2)O[C@H]1c1ccccc1CN=[N+]=[N-] , please?
Response given: 3.57

Challenge: Recorded z-score for CC(C)(C)N1CC=CC23O[C@@H]4C=CCCOC(=O)C4[C@H]2C(=O)N(CCCO)[C@@H]3C1=O (stereo partly drawn) , please?
Response given: 0.79

Challenge: Recorded z-score for COC(=O)[C@@]1(Cc2ccc(F)cc2)[C@H]2c3cc(C(=O)N(C)C)n(Cc4ccc(C)c(F)c4F)c3C[C@H]2CN1C(=O)c1ccccc1 , please?
Response given: 0.306

Challenge: Recorded z-score for C=CC[C@@]1(C(=O)NCC(O)CO)N=C(c2ccc(OCCCO)cc2)O[C@@H]1c1ccccc1 (stereo partly drawn) , please?
Response given: 1.12

* * *

Exercise: for every item that follows, state its recorded composite z-score.
Biological target: Neurogenic locus notch homolog protein 3 (Homo sapiens) (UniProt Q9UM47)
Sequence (Q9UM47 whole entry, looked up): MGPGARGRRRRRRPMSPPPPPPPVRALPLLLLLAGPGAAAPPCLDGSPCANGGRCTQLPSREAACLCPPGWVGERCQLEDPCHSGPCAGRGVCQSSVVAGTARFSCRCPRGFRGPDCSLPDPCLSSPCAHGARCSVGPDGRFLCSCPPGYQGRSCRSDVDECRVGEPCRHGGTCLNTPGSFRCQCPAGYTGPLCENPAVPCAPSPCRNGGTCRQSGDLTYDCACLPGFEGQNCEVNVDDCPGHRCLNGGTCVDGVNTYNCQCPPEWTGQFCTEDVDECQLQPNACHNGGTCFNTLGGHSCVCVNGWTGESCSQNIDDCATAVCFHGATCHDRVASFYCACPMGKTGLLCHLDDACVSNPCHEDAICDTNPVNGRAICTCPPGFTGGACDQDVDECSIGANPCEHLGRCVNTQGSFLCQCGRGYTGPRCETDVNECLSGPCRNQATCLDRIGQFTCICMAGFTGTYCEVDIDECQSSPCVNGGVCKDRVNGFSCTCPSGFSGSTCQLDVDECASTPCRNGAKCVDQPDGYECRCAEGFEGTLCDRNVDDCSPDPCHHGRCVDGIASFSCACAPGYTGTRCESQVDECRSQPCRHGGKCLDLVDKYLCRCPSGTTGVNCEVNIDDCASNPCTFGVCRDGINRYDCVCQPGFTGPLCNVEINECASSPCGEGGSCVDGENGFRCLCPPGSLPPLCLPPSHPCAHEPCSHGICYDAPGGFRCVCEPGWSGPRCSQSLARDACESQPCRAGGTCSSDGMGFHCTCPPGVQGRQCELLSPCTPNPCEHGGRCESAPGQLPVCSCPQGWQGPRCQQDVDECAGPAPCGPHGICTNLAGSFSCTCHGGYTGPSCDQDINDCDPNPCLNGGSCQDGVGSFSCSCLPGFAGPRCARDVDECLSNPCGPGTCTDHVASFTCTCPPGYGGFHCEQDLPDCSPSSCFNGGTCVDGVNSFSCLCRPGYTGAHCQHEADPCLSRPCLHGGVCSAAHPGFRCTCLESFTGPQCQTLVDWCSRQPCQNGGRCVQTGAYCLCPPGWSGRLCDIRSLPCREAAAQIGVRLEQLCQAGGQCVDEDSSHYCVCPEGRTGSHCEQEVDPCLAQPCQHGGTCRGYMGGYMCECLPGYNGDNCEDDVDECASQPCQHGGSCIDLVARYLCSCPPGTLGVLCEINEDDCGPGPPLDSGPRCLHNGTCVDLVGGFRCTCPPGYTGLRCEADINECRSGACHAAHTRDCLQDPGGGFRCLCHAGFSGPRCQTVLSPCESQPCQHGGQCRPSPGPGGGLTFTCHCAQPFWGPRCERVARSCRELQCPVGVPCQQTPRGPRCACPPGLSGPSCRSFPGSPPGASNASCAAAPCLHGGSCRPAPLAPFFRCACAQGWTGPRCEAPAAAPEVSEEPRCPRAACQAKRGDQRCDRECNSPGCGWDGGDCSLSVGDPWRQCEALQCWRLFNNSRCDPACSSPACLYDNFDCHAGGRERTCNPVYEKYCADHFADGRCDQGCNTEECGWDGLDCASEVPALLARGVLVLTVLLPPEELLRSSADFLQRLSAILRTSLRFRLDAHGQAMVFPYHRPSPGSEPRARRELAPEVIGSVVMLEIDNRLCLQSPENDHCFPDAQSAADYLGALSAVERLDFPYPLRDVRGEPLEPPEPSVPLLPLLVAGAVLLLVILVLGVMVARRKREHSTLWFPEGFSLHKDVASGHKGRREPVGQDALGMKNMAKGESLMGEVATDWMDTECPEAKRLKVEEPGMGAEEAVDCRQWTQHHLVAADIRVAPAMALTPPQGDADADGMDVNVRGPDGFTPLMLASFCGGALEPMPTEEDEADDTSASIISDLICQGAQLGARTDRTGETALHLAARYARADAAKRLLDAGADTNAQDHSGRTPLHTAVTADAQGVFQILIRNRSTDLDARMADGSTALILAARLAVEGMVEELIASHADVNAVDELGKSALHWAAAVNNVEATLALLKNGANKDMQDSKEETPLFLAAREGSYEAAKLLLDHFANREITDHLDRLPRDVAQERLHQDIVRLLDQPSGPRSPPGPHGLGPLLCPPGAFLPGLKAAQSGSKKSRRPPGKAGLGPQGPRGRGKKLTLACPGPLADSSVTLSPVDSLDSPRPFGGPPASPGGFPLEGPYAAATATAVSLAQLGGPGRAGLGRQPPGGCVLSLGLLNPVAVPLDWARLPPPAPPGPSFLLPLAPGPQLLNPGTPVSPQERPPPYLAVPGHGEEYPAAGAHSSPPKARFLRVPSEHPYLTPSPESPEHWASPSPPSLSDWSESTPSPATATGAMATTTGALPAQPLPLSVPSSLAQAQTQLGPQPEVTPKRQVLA
Assay: small molecules binding NOTCH3 protein – biochemical, 635/667 nm fluorescence, primary screen (AID 1096)
Details: small-molecule microarray, 635 nm fluorescence, higher = more signal
// keep it numeric: no unit symbol after the value

Challenge: Recorded composite z-score for O=C(O)[C@]1(CCS(=O)(=O)c2ccccc2)N=C(c2ccc(OCCCO)cc2)O[C@@H]1c1ccccc1 , please?
Response given: -0.687

Challenge: Recorded composite z-score for COC(=O)[C@@]1(Cc2ccc(OC)cc2)[C@H]2c3cc(C(=O)N(C)C)n(CCF)c3C[C@H]2CN1C(=O)c1ccccc1 , please?
Response given: 1.02

Challenge: Recorded composite z-score for COC(=O)[C@]1(Cc2ccccc2CN=[N+]=[N-])N=C(c2ccc(OCCCO)cc2)O[C@@H]1c1ccccc1CN=[N+]=[N-] , please?
Response given: -0.253

Challenge: Recorded composite z-score for Cc1ccc(F)cc1S(=O)(=O)N[C@@H]1CCN(C(=O)c2ccc(OC(C)C)cc2)C1 , please?
Response given: 1.13

Challenge: Recorded composite z-score for C=CC[C@@]1(C(=O)NCC(O)CO)N=C(c2ccc(OCCCO)cc2)O[C@@H]1c1ccccc1 (some centres not stated) , please?
Response given: 0.0815

Challenge: Recorded composite z-score for CN(C)C(=O)[C@@]1(CCS(=O)(=O)c2ccccc2)N=C(c2ccc(OCCCO)cc2)O[C@H]1c1ccccc1CN=[N+]=[N-] , please?
Response given: 1.12

Challenge: Recorded composite z-score for CCOC(=O)C[C@H]1[C@H](OC(=O)Cc2ccc3c(c2)OCO3)[C@@H](NC(=O)c2ccccc2)c2cc(OCCCO)ccc2N1C(=O)c1ccccc1 , please?
Response given: 0.713

* * *

Experiment: small molecules captured by biotinylated probe aFGF2 – biochemical, small-molecule microarray, fluorescence 635/667, stem cell growth factor project, primary screen (AID 1067);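 further: measures binding of biotinylated aFGF2 protein to printed compounds on slides; z-score merges feature fluorescence and signal-to-noise across triplicate slides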
Settings: higher = more signal
metric: composite z-score
// keep it numeric: no unit symbol after the value

Challenge: Recorded composite z-score for C/C=C/[C@@H](CCn1cc([C@H](O)c2ccccc2)nn1)[Si](C)(C)c1ccc(OC)cc1 , please?
Response given: -0.0462

Challenge: Recorded composite z-score for O=C1O[C@H](c2ccccc2)[C@H](c2ccccc2)N2[C@H]1[C@@H](C(=O)N1CCN(c3ncccn3)CC1)[C@]1(C(=O)Nc3ccc(C#CCCO)cc31)[C@H]2c1ccc(OCCO)cc1 , please?
Response given: 0.0229

Challenge: Recorded composite z-score for OCc1ccc(-c2cc[n+](Cc3cccc(OC(F)(F)F)c3)cc2)cc1 , please?
Response given: -0.0887

Challenge: Recorded composite z-score for COCCCNC(=O)[C@@]1(C)c2ccccc2C(=O)N(c2ccc(C)cn2)[C@H]1c1ccc(CO)cc1 , please?
Response given: -0.308

Challenge: Recorded composite z-score for COC(=O)[C@]1(Cc2ccccc2CN=[N+]=[N-])N=C(c2ccc(OCCCO)cc2)O[C@@H]1c1ccccc1 , please?
Response given: -0.137

Challenge: Recorded composite z-score for CCCCC=C[C@@H](NC(=O)CCc1ccccc1)c1ccccc1 , please?
Response given: 0.0601

Challenge: Recorded composite z-score for CC(C)C(CO)N1C(=O)[C@@H]2[C@H]3C(=O)OCC=C[C@H]3OC23C=CCN(Cn2nnc4ccccc42)C(=O)[C@@H]13 (stereo partly drawn) , please?
Response given: -0.192

Challenge: Recorded composite z-score for COc1ccc([Si](C)(C)[C@H]2[C@H](CCO)O[C@@]3(C(=O)N(Cc4cccc(N5CCOC5=O)c4)c4ccccc43)[C@@H]2C)cc1 , please?
Response given: -0.034

* * *

Test: probe aLefty2 binding to arrayed compounds – biochemical, biotinylated probe, 635/667 nm fluorescence, primary screen (AID 1094);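 further: score merges spot fluorescence near 667 nm with spot signal-to-noise ratio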
Conditions: small-molecule microarray, higher = more signal
Please assign a class to every record based on measured composite z-score, with ranges group 1 (below -0.07), group 2 (-0.07 to below 0.02), group 3 (0.02 or more)

Challenge: Pick a category. Item: COC(=O)[C@@]1(Cc2ccccc2)[C@H]2c3cc(C(=O)N(C)C)n(Cc4ccccn4)c3C[C@H]2CN1C(=O)c1ccccc1
Response given: group 3

Challenge: Pick a category. Item: COCCOC(=O)N1C(=O)[C@@]2(c3cc(C#Cc4ccc(OC)cc4)ccc31)[C@H](C(N)=O)[C@H]1C(=O)O[C@H](c3ccccc3)[C@H](c3ccccc3)N1[C@@H]2c1ccc(OCCO)cc1
Response given: group 1

Challenge: Pick a category. Item: COc1cc2c(cc1OC)CN(C(=O)[C@@H]1[C@H]3C(=O)O[C@H](c4ccccc4)[C@H](c4ccccc4)N3[C@H](c3ccc(OCCO)cc3)[C@@]13C(=O)Nc1ccc(C#CCCO)cc13)CC2
Response given: group 3

Challenge: Pick a category. Item: COc1ccc(C(=O)Nc2ccc3c(c2)[C@]2(O[C@@H](CCO)[C@H]([Si](C)(C)c4ccc(OC)cc4)[C@H]2C)C(=O)N3Cc2ccccc2)cc1
Response given: group 1

Challenge: Pick a category. Item: COC(=O)[C@@]1(Cc2ccccc2N=[N+]=[N-])N=C(c2ccc(OCCCO)cc2)O[C@H]1c1ccccc1
Response given: group 2

Challenge: Pick a category. Item: NC(=O)[C@H]1[C@@H]2C(=O)O[C@@H](c3ccccc3)[C@@H](c3ccccc3)N2[C@@H](c2ccc(O)cc2)[C@]12C(=O)Nc1ccc(C#CC3(O)CCCCCC3)cc12
Response given: group 3

Challenge: Pick a category. Item: COCCOC(=O)N1C(=O)[C@@]2(c3cc(C#Cc4ccc(OC)cc4)ccc31)[C@H](C(=O)N1CCc3cc(OC)c(OC)cc3C1)[C@H]1C(=O)O[C@H](c3ccccc3)[C@H](c3ccccc3)N1[C@@H]2c1ccc(O)cc1
Response given: group 1

Challenge: Pick a category. Item: O=C1C2C=CC(C(O)c3ccccn3)N(Nc3ccccc3)C2C(=O)N1c1ccccc1 (centres undefined)
Response given: group 1

Challenge: Pick a category. Item: O=C(CS)NCCCCCNC(=O)[C@@H]1C[C@@H]2C(=O)N3CCC[C@H]3C(=O)N2[C@@H]1c1ccc(O)cc1
Response given: group 2

Challenge: Pick a category. Item: COC(=O)[C@]1(Cc2ccccc2CN=[N+]=[N-])N=C(c2ccc(OCCCO)cc2)O[C@@H]1c1ccccc1
Response given: group 3

Challenge: Pick a category. Item: CC(C)c1ccc(NN2C(C(O)c3ccccn3)C=CC3C(=O)N(c4ccccc4)C(=O)C32)cc1 (centres undefined)
Response given: group 2

Challenge: Pick a category. Item: O=C1CSC(c2cccc([N+](=O)[O-])c2)N1c1ccccc1 (centres undefined)
Response given: group 2

Challenge: Pick a category. Item: COC(=O)c1ccc(OC)c(/C=C\CC(CCc2ccccc2)OC(=O)c2ccncc2)c1 (centres undefined)
Response given: group 3
